molecular target: bradykinin 1 receptor (B1R) of the rat (Rattus norvegicus, UniProt P97583); construct: expressed in transfected cells; host or cells: CHO K1 cells; experiment: Functional investigation on the rat bradykinin 1 receptor (B1R), Ca2+ FLIPR assay in CHO K1 rB1R cells; type: cell-based; details: CHO-K1, B1R antagonism rat; test substance 10 μM; Ca2+ FLIPR, CHO K1 rB1R cells; read-out: B1R Ant. r [10 μM] % Inhibition
Sequence (P97583 whole entry): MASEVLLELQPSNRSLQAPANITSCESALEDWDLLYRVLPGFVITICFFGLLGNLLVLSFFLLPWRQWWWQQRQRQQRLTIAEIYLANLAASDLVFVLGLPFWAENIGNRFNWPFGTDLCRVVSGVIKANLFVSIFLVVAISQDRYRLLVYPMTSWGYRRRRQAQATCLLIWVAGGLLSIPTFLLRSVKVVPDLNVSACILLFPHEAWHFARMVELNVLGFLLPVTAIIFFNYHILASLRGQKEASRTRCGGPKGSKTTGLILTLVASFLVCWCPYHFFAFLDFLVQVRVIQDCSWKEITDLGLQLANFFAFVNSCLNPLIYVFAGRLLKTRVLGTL
MEASUREMENT TYPE: inhibition at 10 µM (%)
Answer with a number only, understood to be in %.

Item: COc1cc(C)c(S(=O)(=O)N2CCCC(COCC(=O)NC3CCC(C(CCc4ccccc4)N4CCOCC4)CC3)C2)c(C)c1 (centres unmarked) | inhibition at 10 µM: 73

inhibition at 10 µM measured on COc1ccc(S(=O)(=O)N2Cc3ccccc3CC2COCC(=O)NCC2CCC(C(c3cccs3)N(C)C)CC2)cc1 (centres unmarked) = 27

Lab note: CN(C)C(c1ccccc1)C1CCC(NC(=O)CNC(=O)c2nc(-c3cc(Cl)cc(Cl)c3)no2)CC1 (centres unmarked) gave inhibition at 10 µM of -4

The value of inhibition at 10 µM measured for the compound CN(CCOCC(=O)NCC1CCC(C(c2ccccc2)N2CCOCC2)CC1)S(=O)(=O)c1c(Cl)cccc1Cl (centres unmarked) turned out to be 52

// inhibition at 10 µM lookup, compound = CN(C)C(c1cccc(F)c1)C1CCC(CCNC(=O)COCCN(C)S(=O)(=O)c2c(Cl)cccc2Cl)CC1 (centres unmarked) , result: 54

Entry COc1cc(C)c(S(=O)(=O)N(C)CCOCC(=O)NCCC2CCC(C(c3cccc(F)c3)N(C)C)CC2)c(C)c1C (centres unmarked) ; inhibition at 10 µM = 28

For record CN(C)C(c1ccccc1)C1CCC(CNC(=O)COCCN(C)S(=O)(=O)c2ccc(OC(F)(F)F)cc2)CC1 (centres unmarked) the listed inhibition at 10 µM is 41

// field: inhibition at 10 µM; key: COc1ccc(S(=O)(=O)N2Cc3ccccc3CC2COCC(=O)NCCC2CCC(C(c3cccc(F)c3)N(C)C)CC2)cc1 (centres unmarked) ; value = 18

Kindly note the recorded inhibition at 10 µM for O=C(COCC1CCCN1S(=O)(=O)c1c(Cl)cc(Cl)cc1Cl)NC1CCC(C(CCc2ccccc2)N2CCCCC2)CC1 (centres unmarked) , which is 97

Briefly, inhibition at 10 µM measured for CN(C)C(c1ccccc1)C1CCC(CNC(=O)COC2CCCN(S(=O)(=O)c3ccccc3)C2)CC1 (centres unmarked) : 8

The reported value for COc1ccccc1-c1noc(C(=O)NCC(=O)NC2CCC(C(CCc3ccccc3)N(C)C)CC2)n1 (centres unmarked) in terms of inhibition at 10 µM is -11

GET /value?item= CN(CCOCC(=O)NCC1CCC(C(c2ccccc2)N2CCOCC2)CC1)S(=O)(=O)c1ccc(Cl)cc1Cl (centres unmarked) &field=inhibition at 10 µM returns -9

// recorded inhibition at 10 µM for CN(C)C(c1ccccc1)C1CCC(NC(=O)CCNC(=O)c2nc(-c3ccc4c(c3)OCO4)no2)CC1 (centres unmarked) : -2

Memo: COc1ccc(S(=O)(=O)N2CCC(OCC(=O)NCC3CCC(C(c4cccs4)N(C)C)CC3)C2)cc1OC (centres unmarked) , reported inhibition at 10 µM: 7
